Hey, just so you know, these numbers are from patent US11485708B2.

Catalogue of pIC50 values
Tested system: human PD-L1 / Human PD-1 (Homo sapiens (Human), UniProt Q9NZQ7)
Sequence (Q9NZQ7 19-239): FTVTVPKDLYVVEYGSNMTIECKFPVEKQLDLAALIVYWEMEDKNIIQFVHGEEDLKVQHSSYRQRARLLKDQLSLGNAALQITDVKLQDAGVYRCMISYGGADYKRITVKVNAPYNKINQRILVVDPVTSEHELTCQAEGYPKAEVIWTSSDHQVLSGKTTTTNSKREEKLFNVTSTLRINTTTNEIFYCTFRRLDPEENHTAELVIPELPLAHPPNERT
Run description: Enzyme-Linked Immunosorbent Assay (ELISA), PD-1/PD-L1 binding
Condition label: plates coated with human PD-L1, biotinylated human PD-1 added
pIC50: −log10 of the molar value.

Before answering, review these 4 worked examples.
Cc1c(OCCCN2CCC(F)CC2)cccc1-c1cccc(-c2ccc3c(c2)CCNC3)c1C    > 6.00
COc1cc(-c2cccc(-c3cccc(OC4CCCNC4)c3C)c2C)cc(F)c1CN (stereo not drawn)    5.00 to 6.00
Cc1c(OCCCN2[C@H](C)CC[C@H]2C)cccc1-c1cccc(-c2ccc3c(c2)CC(CO)NC3)c1C (stereo partly drawn)    > 6.00
COc1cc(-c2cccc(-c3cccc(OCCCN4CCC(F)CC4)c3C)c2C)cc(OC)c1CN(C)C    5.00 to 6.00

Asked: Quick check: pIC50 of `COc1cc(-c2cccc(-c3cccc(-c4cc(F)c(CN(C)C[C@@H]5CCC(=O)N5)c(OC)c4)c3C)c2C)cc(F)c1CN(C)C[C@@H]1CCC(=O)N1` ?
Given back: > 6.00

Asked: I'd like to know its pIC50. The compound in question is `Cc1c(OCCCN2CCC(F)CC2)cccc1-c1cccc(-c2ccc3c(c2C)CCNC3)c1C`
Given back: 5.00 to 6.00

Asked: What value of pIC50 has been recorded for this entry: `COc1cc(CN(C)C)ccc1-c1cccc(-c2cccc(OCCCN3CCC(F)CC3)c2C)c1C`
Given back: 5.00 to 6.00

Asked: Any idea what pIC50 was measured for `Cc1c(OCCCN2CCC2(C)C)cccc1-c1cccc(-c2ccc3c(c2)CCNC3)c1C` ?
Given back: > 6.00

---

Tested system: human PD-L1 / Human PD-1 (Homo sapiens (Human))
Run description: Enzyme-Linked Immunosorbent Assay (ELISA), PD-1/PD-L1 binding
Condition label: plates coated with human PD-L1, biotinylated human PD-1 added
Reported IC50 values are given for each entry in this list.

Take a look at these entries with their results.
COC(=O)C1=Cc2cc(-c3cccc(-c4cc(F)c(CN)c(OC)c4)c3C)ccc2OC1 [Compd 1.016]    < 1 µM
COc1cc(-c2cccc(-c3cccc(-c4cc(F)c(CNC(C)C)c(OC)c4)c3C)c2C)cc(F)c1CNC(C)C [Compd 1.048]    < 1 µM
Cc1c(OCCCN2CCC2(C)C)cccc1-c1cccc(-c2ccc3c(c2)CCNC3)c1F [Compd 1.090]    < 1 µM
COc1ccc(-c2cccc(-c3cc(F)c(CN)c(OC)c3)c2C)cc1F [Compd 1.025]    1 to 10 µM
Cc1c(OCCCN2[C@H](C)CC[C@H]2C)cccc1-c1cccc(-c2ccc(CNCCC(=O)O)cc2)c1C [Compd 1.097]    < 1 µM
COc1cc(-c2cccc(-c3cccc(-c4cc(F)c(CN)c(OC)c4)c3C)c2C)ccc1CC(=O)O [Compd 1.001]    1 to 10 µM
COc1cc(-c2cccc(-c3cccc(-c4cc(F)c(CNCCO)c(OC)c4)c3C)c2C)cc(F)c1CNCCO [Compd 1.051]    < 1 µM
Cc1c(OCCCN2[C@H](C)CC[C@H]2C)cccc1-c1cccc(-c2ccc3c(c2)CCN(CCO)C3)c1C [Compd 1.107]    < 1 µM
COC(=O)[C@@H]1CCCCN1Cc1ccc(-c2cccc(-c3cccc(OCCCN4CCC(F)CC4)c3C)c2C)cc1 [Compd 1.072]    1 to 10 µM
CCOc1cc(-c2cccc(-c3cccc(OCCCN4[C@H](C)CC[C@H]4C)c3C)c2C)ccc1CN(C)C [Compd 1.075]    < 1 µM

Asked: Tell me the measured IC50 of COc1cc(-c2cccc(-c3cccc(-c4cc(F)c(CNCCCCC(=O)O)c(OC)c4)c3C)c2C)cc(F)c1CNCCCCC(=O)O [Compd 1.054] , please.
Given back: < 1 µM

Asked: Param item = Cc1c(OCCCN2[C@H](C)CC[C@H]2C)cccc1-c1cccc(-c2ccc(CCN)cc2)c1C [Compd 1.118] ; retrieve measured IC50.
Given back: < 1 µM

Asked: Consider the molecule Cc1c(OCCCN2CC(O)C2)cccc1-c1cccc(-c2ccc3c(c2)CCNC3)c1C [Compd 1.112] and give its measured IC50.
Given back: < 1 µM

Asked: Name the recorded IC50 for COc1cc(-c2cccc(-c3cccc(-c4cc(F)c(CNCCCO)c(OC)c4)c3C)c2C)cc(F)c1CNCCCO [Compd 1.056] .
Given back: < 1 µM

Asked: Value lookup for IC50; key = COc1cc(-c2cccc(-c3cccc(CCN)c3C)c2C)cc(F)c1CN [Compd 1.023]
Given back: 1 to 10 µM

Asked: So what does the record say about IC50 for COc1cc(-c2cccc(-c3cccc(-c4cc(F)c(CNCC(=O)O)c(OC)c4)c3C)c2C)cc(F)c1CNCC(=O)O [Compd 1.062] ?
Given back: < 1 µM

Asked: Look up IC50: COc1cc(-c2cccc(-c3ccc4c(c3)OC(C3=NCCN3)CO4)c2C)cc(F)c1CN (stereo not drawn) [Compd 1.009]
Given back: 1 to 10 µM

Asked: What value of measured IC50 is listed for COc1c(-c2ccc3c(c2)CCNC3)cccc1-c1cccc(OCCCN2CCC2(C)C)c1C [Compd 1.088] ?
Given back: < 1 µM

Asked: Report IC50 for Cc1c(OCCCN2[C@H](C)CC[C@H]2C)cccc1-c1cccc(-c2ccc3c(c2)CC(C(=O)O)NC3)c1C (stereo partly drawn) [Compd 1.064] please.
Given back: 1 to 10 µM

Asked: Return reported IC50; argument: Cc1c(-c2ccc3c(c2)CCNC3)cccc1-c1cccc(OCCCN2[C@H](C)CC[C@H]2C)c1F [Compd 1.091]
Given back: < 1 µM

Asked: Tell me the measured IC50 of COc1cc(-c2cccc(-c3cccc(-c4cc(F)c(CN)c(OC)c4)c3C)c2C)ccc1CN [Compd 1.036] , please.
Given back: < 1 µM

Asked: // returns reported IC50 for input Cc1cc(-c2cccc(-c3cccc(OCCCN4CCC(F)CC4)c3C)c2C)ccc1CN(C)C [Compd 1.083]
Given back: < 1 µM

Asked: # IC50 lookup, item Cc1c(OCCCN2CCC2(C)C)cccc1-c1cccc(-c2ccc3c(c2)CCNC3)c1C#N [Compd 1.102]
Given back: < 1 µM

Asked: For COc1cc(-c2cccc(-c3cccc(OCCCN4[C@H](C)CC[C@H]4C)c3C)c2C)cc(F)c1CNCCCC(=O)O [Compd 1.067] , what is its reported IC50?
Given back: < 1 µM

Asked: Would you kindly share the measured IC50 for CNCc1c(F)cc(-c2cccc(-c3cccc(-c4cc(F)c(CNC)c(OC)c4)c3C)c2C)cc1OC [Compd 1.053] ?
Given back: < 1 µM

Asked: Data request, read-out IC50, for Cc1c(OCCCN2CCC(F)CC2)cccc1-c1cccc(-c2ccc(CN)cc2F)c1C [Compd 1.082]
Given back: < 1 µM
